experiment_notes: HepG2 cytotoxicity (CellTiter-Glo, 72 h)
Format: cell-based, human
condition_info: human, HepG2 cytotoxicity IC50 Galactose
outcome_measure: IC50 at 72 h (µM)
Answer with a number only, understood to be in µM.

// below: answered compounds
> print(dat)
                                 smiles.str  reported.result
1      CCOc1ccc(NC(=S)Nc2ccc(C)c(C#N)c2)cc1               35
2     CCc1ccc(OCC(=O)Nc2cccc3c2C(=O)OC3)cc1               47
3            O=C(COc1ccc2ccccc2c1)Nc1ccncc1               61
4     CCN(CC)C(=O)c1sc2nc(-c3ccccc3)ccc2c1N               42
5  Cc1sc(NC(=O)c2ccc(OC(C)C)cc2)c(C(N)=O)c1C               41

Consider the compound shown here: Nc1c(C(=O)N2CCCC2)sc2nc(-c3ccccc3)ccc12 What is its recorded IC50 at 72 h?
64

Consider the compound shown here: O=C(COc1ccccc1)NC12CC3CC(CC(C3)C1)C2 What is its recorded IC50 at 72 h?
43

Consider the compound shown here: OCc1cn(-c2ccc(F)cc2)nc1-c1cc(F)c(Cl)cc1Cl What is its recorded IC50 at 72 h?
43

Consider the compound shown here: COCc1cc(C)nc2sc(C(=O)Nc3cccc(Cl)c3)c(N)c12 What is its recorded IC50 at 72 h?
64

Consider the compound shown here: Cc1cc(OCC(=O)N2CCC(C)CC2)ccc1Br What is its recorded IC50 at 72 h?
55

Consider the compound shown here: CCCOc1ccc(C(=O)Nc2sc(C)c(C)c2C(N)=O)cc1 What is its recorded IC50 at 72 h?
89
